Parameter TGI: see the listing below.
- System: PC-3 prostate
- Assay explanation: NCI tumour cell line growth inhibition, 48 h
Give the value in µM but do not write µM after it.

O=[N+]([O-])c1ccccc1S(=O)(=O)c1cc(O)cc2c1NCCC2; 28.7

Looking for the measured TGI of CC(C)[C@]12O[C@H]1[C@@H]1O[C@@]13[C@@]1(C)CCC4=C(COC4=O)[C@@H]1C[C@@H]1O[C@@]13C2=O , can you help?
2.11

====

- Tested on: UO-31 renal
- Assay explanation: NCI tumour cell line growth inhibition, 48 h
Observation type: GI50

Worked cases, GI50 given:
CCCCN1CCN(c2ccc3nc(-c4ccc5nc(-c6ccc(OC)c(OC)c6)[nH]c5c4)[nH]c3c2)CC1; 8.04 µM
Nc1nc(/C=C\c2ccc([N+](=O)[O-])cc2)nc(N2CCN(c3ccccc3)CC2)n1; 27.7 µM
COc1cc(NCCCCCN=C(N)N)c2ncccc2c1; > 100 µM

Shift focus to the following entry.
Given the compound O=C1Nc2cc(Cl)ccc2/C1=C\c1c(-c2ccc(F)cc2)nc2ccccn12 , what is its reported GI50?
0.686 µM

====

- System: SK-OV-3 ovarian
- Assay explanation: NCI tumour cell line growth inhibition, 48 h
Observation type: TGI

Use the examples below as a reference point.
CCOC(=O)C1=C(NC(C)(C)C)OC/C1=N\NC(=O)Cc1ccccc1; > 100 µM
C/C(=N\NC1=NCCN1)c1cn(C2=NCCN2)nc1C; > 100 µM
CC(=O)[CH-]C(C)=O.CC(=O)[CH-]C(C)=O.CC(=O)[CH-]C(C)=O.[In+3]; > 100 µM
CN1CCN([C@H]2C[C@H]3[C@@H]4CC=C5C[C@@H](N6CCCC6)CC[C@]5(C)[C@H]4CC[C@]3(C)[C@H]2O)CC1; > 100 µM
CC12CCC(C(Br)(Br)C1=O)C2(C)C (stereo not drawn); > 31.6 µM

Which TGI is listed for COc1nc(N)c(C#N)c(C#N)c1C#N ?
> 10 µM

Please answer likewise for O=C(CC1C(=O)Nc2ccccc2S1=O)Nc1ccccc1 (stereo not drawn)
62.6 µM

// query: COc1ccc(C2=C3c4cc(OC)c(OC)cc4CCN3C(=S)SS2)cc1OC
> 100 µM

Please give the result for Cn1c(=O)[nH]c2nccnc2c1=O too.
> 10 µM

Entry O=C(O)c1cccc2cccc(-c3c4ccc(=O)cc-4oc4cc(O)ccc34)c12 please
> 100 µM

Same lookup for CN1CCN(CCCOc2ccc3nc(Nc4cc(Cl)cc(Cl)c4)ccc3c2)CC1 , please.
3.69 µM

Follow-up item: Cc1nn(C2OC(CO)C(O)C(F)C2O)c(=O)[nH]c1=O (stereo not drawn)
> 100 µM

What about this compound? C=C1OC(=O)[C@]2([C@@H](/C=C/C)C=CC(=O)[C@H]2O)[C@@H]1O
> 100 µM

Proceed to CN(C)CCCNC(=O)N/N=C/c1ccc([N+](=O)[O-])cc1
> 100 µM

Next compound: CCOC(=O)C1(O)C(=O)C2=C3C(=O)OC(C4OC(=O)c5c(c(O)c(O)c(O)c5C31)-c1c(cc(O)c(O)c1O)C(=O)OC1COC(=O)c3cc(O)c(O)c(O)c3-c3c(cc(O)c(O)c3O)C(=O)OC14)[C@@H]2O (stereo partly drawn)
> 100 µM

And the next one, Nc1nc(-c2ccccc2)c(Cl)c(-c2cc(Cl)ccc2O)n1 ?
49.3 µM

What do you have for CC(=O)O[C@H]1CCC2(C)C(=CCC3C2CCC2(C)/C(=N/OC(=O)c4ccc(N(CCCl)CCCl)cc4)CCC32)C1 (stereo partly drawn) ?
> 100 µM

Also Cc1cc2ncn(C3CCCO3)c2cc1C (stereo not drawn) , if possible.
> 100 µM

Repeat with O=P(O)(NCCCl)NCCCl
> 100 µM

For CC(C)c1cc(Cl)nc(Cl)n1 then?
> 100 µM

Now the compound O=C1Nc2cc(Cl)ccc2/C1=C\c1c(-c2ccc(F)cc2)nc2ccccn12
2.42 µM

Follow-up item: CC12OC1(C)C1C(=O)OCC1C2=O (stereo not drawn)
> 100 µM

What would you report for N#CC(/C(CCCC(=O)Nc1cccc([N+](=O)[O-])c1)=N/NC(=O)c1cc2ccccc2cc1O)c1ccccc1 (stereo not drawn) ?
> 100 µM

====

- Test system: HS 578T breast
- Assay explanation: NCI tumour cell line growth inhibition, 48 h
Observation type: GI50

Please review the following examples before continuing.
C(#Cc1cnccn1)/C=C\C#Cc1cnccn1; 31.6 µM
CCc1ccc(CNCC(O)c2ccccc2)cc1 (configuration not stated); 28.1 µM
O=C(Nc1ccc(CN2CCOCC2)cc1)c1ccc(-c2cc(Cl)ccc2Cl)o1; 12.5 µM

Look up GI50: C[C@@H]1C[N+]2([O-])[C@H]3C4=CCC[C@@H]4CC[C@H]3[C@@]3(C)OC(=O)CC[C@]34CC[C@H]1[C@@H]42 (some centres not stated)
> 60 µM

Subsequent entry: O=C1c2ccccc2-c2nnc(-c3ccc(Br)cc3)cc21
> 100 µM

# iterate: CN1CCN(CCCOc2ccc3nc(Nc4cc(Cl)cc(Cl)c4)ccc3c2)CC1
1.87 µM

Try this compound next: O=C(/C=C/c1ccc(Cl)cc1)/C=C/c1cc2ccccc2[nH]c1=O
4.14 µM

====

- System: BT-549 breast
- Assay explanation: NCI tumour cell line growth inhibition, 48 h
Reported TGI values for a set of compounds
A number alone suffices; assume µM.

Some entries whose results are on file:
COc1cc(NCCCCCN=C(N)N)c2ncccc2c1; 18.5
Cc1cc2[nH]c(Cl)c(/C=C3\C(=O)Nc4ccccc43)c2cc1O; 25

Now examine the next entry.
Enter reported TGI observed with BT-549 breast for Cc1ccc([N+](=O)[O-])cc1S(=O)(=O)Nc1ccc(C(=O)/C=C/c2cccs2)cc1
40.1

====

- System: SF-295 CNS
- Assay explanation: NCI tumour cell line growth inhibition, 48 h; in the data active means GI50 below about 0.43 µM; inactive means the rest
Hi! Could you answer with just one of these? yes (1) = active, no (0) = inactive

Worked set:
FC(F)(F)c1nnn[n-]1.[Au+].c1ccc([PH+](c2ccccc2)c2ccccc2)cc1; no (0)
COc1cc2ncn(-c3cc(O[C@H](C)c4ccccc4Cl)c(C(N)=O)s3)c2cc1OC; yes (1)
CCCCN1CCN(c2ccc3nc(-c4ccc5nc(-c6ccc(OC)c(OC)c6)[nH]c5c4)[nH]c3c2)CC1; no (0)
[Cl-].[Cl-].[Cl-].[O-]c1cccc2cccnc12.[O-]c1cccc2cccnc12.[O]=[Mo]; no (0)

So what was the verdict on ClCc1ccc(-c2ccc(Cn3cnc4nc(Cl)nc(Cl)c43)cc2)cc1 in this test?
no (0)

====

compounds and their reported TGI
- Tested on: SK-MEL-5 melanoma
- Assay explanation: NCI tumour cell line growth inhibition, 48 h

Reported TGI, compound COc1cc(S(=O)(=O)Nc2nc(-c3ccc(N=Cc4cccs4)cc3)cs2)ccc1Cl : ____
> 100 µM

====

- Tested on: HT29 colon
- Assay explanation: NCI tumour cell line growth inhibition, 48 h
Observation type: GI50

The following compounds have reported results that may help.
CN1CCc2c(c3ccccc3c3ccccc23)C1; 4.23 µM
O=C(NCc1ccc(Cl)cc1Cl)c1ccc(NC2=C(Cl)C(=O)N(Cc3ccccc3)C2=O)cc1; 54.3 µM
FC(F)(F)c1nnn[n-]1.[Au+].c1ccc([PH+](c2ccccc2)c2ccccc2)cc1; 4.25 µM
CN1CCN(CCCOc2ccc3nc(Nc4cc(Cl)cc(Cl)c4)ccc3c2)CC1; 0.548 µM

In the following, a different compound is considered.
Entry CCOC(=O)[C@H]1O[C@@H]1C(=O)N[C@@H](CC(C)C)C(=O)NCCc1ccc(O)cc1 : reported GI50 = ?
> 100 µM

====

- Test system: T-47D breast
- Assay explanation: NCI tumour cell line growth inhibition, 48 h
Where a SMILES comes first, the peptide text is derived from it. The star is where a group is joined. Boc = CC(C)(C)OC(=O)*
Observation type: TGI (µM)
Report the value in µM with no unit label.

COc1ccccc1/C=C1\Sc2scc(-c3ccc(O)c(O)c3)[n+]2C1=O; 42.5
CC(C)(C)OC(=O)NC(Cc1ccc(O)cc1)C(=O)NC(CCCCN)C(=O)O (stereo not drawn) (Boc-Tyr-Lys-OH; configuration not given here); 53.1

We next turn to a different compound, shown below.
May I ask what TGI has been recorded for Nc1nc2c(c3ncccc13)C(c1cccc(Br)c1)Cc1ncccc1-2 (stereo not given) ?
38.7

====

- Test system: SN12C renal
- Assay explanation: NCI tumour cell line growth inhibition, 48 h
Note to self: values exactly at 20 µM are true. So TGI at or above 20 µM is true, below is false.

Completed entries (count: 8):
CC1CC(C)CC(NC2=NCCO2)C1 (stereo unspecified); true
COc1ccc2[nH]c(-c3ccccc3)c(/C=C(\C#N)S(=O)(=O)c3ccccc3)c2c1; true
O=C(NC(=S)Nc1ccccc1)c1ccc([N+](=O)[O-])cc1; true
CN(C)CCC=C1c2ccccc2C=Cc2ccccc21; true
Clc1ccccc1/C=C\C1(c2ccccc2)OCCO1; true
COc1cc(S(=O)(=O)Nc2nc(-c3ccc(N=Cc4cccs4)cc3)cs2)ccc1Cl; true
CCCCc1ccc(Nc2cc(=O)n(C)c(=O)[nH]2)cc1; true
C[C@@H]1C[N+]2([O-])[C@H]3C4=CCC[C@@H]4CC[C@H]3[C@@]3(C)OC(=O)CC[C@]34CC[C@H]1[C@@H]42 (stereo partly specified); true

Assess whether reported TGI for COc1cc(C=O)cc(/C=N/c2ccccn2)c1O sits at 20 µM or higher.
true

Cool, now CC12CCC(C(Br)(Br)C1=O)C2(C)C (stereo unspecified)
false
